target: T1, cynomolgus monkey IL-17A (Macaca fascicularis (cynomolgus monkey)); test: SPR (Biacore T200), cynomolgus IL-17A, scFv as analyte
T1 construct: also called cyno IL-17A; cyno IL17A
observedProperty: kon (M⁻¹ s⁻¹)

[[record]]
binder = "PRO571 (humanized anti-IL-17A scFv, CDR graft of 27-31-C04) (scFv, VL-linker-VH; also called 27-31-C04-sc01; 27_31_C04_sc01) scFv: DIQMTQSPSSLSASVGDRVTITCQASESIYRYLSWYQQKPGKAPKLLIYLASTLTSGVPSRFSGSGSGTDFTLTISSLQPEDFATYYCQSNFGTASTTYYNTFGGGTKLTVLGGGGGSGGGGSGGGGSGGGGSEVQLVESGGGLVQPGGSLRLSCAASGFSFSGFYYMCWVRQAPGKGLEWIGCIDTGDGTTYYASWAKGRFTISRDNSKNTVYLQMNSLRAEDTAVYYCARDAAYGGYAYPAHGMDLWGQGTLVTVSS"
units = "M⁻¹ s⁻¹"
testresult = "1.17e+06"

[[record]]
binder = "A2 (humanized anti-IL-17A scFv, STR graft of 27-07-G02) (scFv, VL-linker-VH; also called 27-07-G02-sc02) scFv: DIQMTQSPSSLSASVGDRVTITCQASQTINYWLAWYQQKPGKPPKLLIYRASTLASGVPSRFSGSGSGTDFTLTISSLQPEDFATYYCQNYYYSTSRSYGFGGGTKLTVLGGGGGSGGGGSGGGGSGGGGSEVQLVESGGGLVKPEGSLRLSCAASGFSFSSDYWMCWVRQAPGKGLEWIACIYAGDVDDTDYASWARGRFTISRDNSKNTVYLQMNSLRAEDTAVYYCARVDGFDITYFDLWGQGTLVTVSS"
units = "M⁻¹ s⁻¹"
testresult = 167000

[[record]]
binder = "A1 (humanized anti-IL-17A scFv, CDR graft of 27-07-G02) (scFv, VL-linker-VH; also called 27-07-G02-sc01; 27_07_G02_sc01) scFv: DIQMTQSPSSLSASVGDRVTITCQASQTINYWLAWYQQKPGKAPKLLIYRASTLASGVPSRFSGSGSGTDFTLTISSLQPEDFATYYCQNYYYSTSRSYGFGGGTKLTVLGGGGGSGGGGSGGGGSGGGGSEVQLVESGGGLVQPGGSLRLSCAASGFSFSSDYWMCWVRQAPGKGLEWIGCIYAGDVDDTDYASWARGRFTISRDNSKNTVYLQMNSLRAEDTAVYYCARVDGFDITYFDLWGQGTLVTVSS"
units = "M⁻¹ s⁻¹"
testresult = 288000

[[record]]
binder = "PRO592 (humanized anti-IL-17A scFv, STR graft of 27-31-C04) (scFv, VL-linker-VH; also called 27-31-C04-sc02; 27_31_C04_sc02) scFv: DIQMTQSPSSLSASVGDRVTITCQASESIYRYLSWYQQKPGKAPKLLIYLASTLTSGVPSRFSGSGSGTDFTLTISSLQPEDFATYYCQSNFGTASTTYYNTFGGGTKLTVLGGGGGSGGGGSGGGGSGGGGSEVQLVESGGGLVQPGGSLTLSCAASGFSFSGFYYMCWVRQAPGKGLEWIGCIDTGDGTTYYASWAKGRFTISRDNSKNTVYLQMNSLRAEDTAVYYCARDAAYGGYAYPAHGMDLWGPGTLVTVSS"
units = "M⁻¹ s⁻¹"
testresult = 336000


meta.source: patent US20220127350A1
